measured.target: progesterone receptor (PR) (Homo sapiens)
Construct: expressed in transfected cells; host or cells: human U2-OS cells, stably transfected with pSG5-hPR
Sequence (P06401 1-933): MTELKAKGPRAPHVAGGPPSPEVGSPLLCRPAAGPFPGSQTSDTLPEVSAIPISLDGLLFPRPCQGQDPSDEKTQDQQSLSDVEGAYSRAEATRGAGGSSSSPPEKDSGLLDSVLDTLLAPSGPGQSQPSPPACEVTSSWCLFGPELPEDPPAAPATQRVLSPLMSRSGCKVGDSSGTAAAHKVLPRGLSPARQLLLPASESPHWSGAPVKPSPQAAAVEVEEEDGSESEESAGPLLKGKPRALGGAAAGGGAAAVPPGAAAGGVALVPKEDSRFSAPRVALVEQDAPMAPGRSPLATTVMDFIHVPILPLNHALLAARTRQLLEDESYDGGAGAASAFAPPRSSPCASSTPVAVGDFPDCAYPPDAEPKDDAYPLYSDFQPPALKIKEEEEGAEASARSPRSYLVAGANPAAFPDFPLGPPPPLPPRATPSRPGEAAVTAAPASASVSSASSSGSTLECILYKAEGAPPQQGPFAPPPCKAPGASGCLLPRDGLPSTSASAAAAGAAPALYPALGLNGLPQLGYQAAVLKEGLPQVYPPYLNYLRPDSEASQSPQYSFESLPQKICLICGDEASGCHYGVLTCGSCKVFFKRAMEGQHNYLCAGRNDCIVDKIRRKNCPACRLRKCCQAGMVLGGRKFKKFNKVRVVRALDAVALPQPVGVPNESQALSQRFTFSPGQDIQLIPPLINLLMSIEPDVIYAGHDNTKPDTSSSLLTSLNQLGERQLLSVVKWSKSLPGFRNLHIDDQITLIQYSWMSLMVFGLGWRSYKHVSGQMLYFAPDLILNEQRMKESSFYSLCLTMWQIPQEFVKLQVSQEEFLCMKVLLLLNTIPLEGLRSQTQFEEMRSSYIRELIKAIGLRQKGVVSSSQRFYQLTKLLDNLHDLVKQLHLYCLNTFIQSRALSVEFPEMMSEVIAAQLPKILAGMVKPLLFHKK
test.method.notes: U2-OS PR cell line (pSG5-hPR, 3×HRE-TATA-Luc reporter)
Assay type: cell-based
reported.property: EC50 (µM)
The reply should be a number in µM, with the unit left off.

Recorded results for 2 compounds are shown here.
C[C@]12CC[C@H]3[C@@H](CCC4=CC(=O)CC[C@@H]43)[C@@H]1CC[C@@H]2O; 0.00501
C[C@]12CCC(=O)C[C@@H]1CC[C@@H]1[C@@H]2CC[C@]2(C)[C@@H](O)CC[C@@H]12 [dihydro-testosterone, 5α-dihydro-testosterone]; 3.98

// below: EC50 requested for another compound
## Input Recall the recorded EC50 for C[C@]12CC[C@H]3[C@@H](CCC4=CC(=O)CC[C@@]43C)[C@@H]1CC[C@@H]2O with progesterone receptor (PR) (Homo sapiens) and state it.
## Output 7.94

###

# EC50 per record follows
measured.target: ER-alpha (Homo sapiens, UniProt P03372)
Sequence (P03372 whole entry): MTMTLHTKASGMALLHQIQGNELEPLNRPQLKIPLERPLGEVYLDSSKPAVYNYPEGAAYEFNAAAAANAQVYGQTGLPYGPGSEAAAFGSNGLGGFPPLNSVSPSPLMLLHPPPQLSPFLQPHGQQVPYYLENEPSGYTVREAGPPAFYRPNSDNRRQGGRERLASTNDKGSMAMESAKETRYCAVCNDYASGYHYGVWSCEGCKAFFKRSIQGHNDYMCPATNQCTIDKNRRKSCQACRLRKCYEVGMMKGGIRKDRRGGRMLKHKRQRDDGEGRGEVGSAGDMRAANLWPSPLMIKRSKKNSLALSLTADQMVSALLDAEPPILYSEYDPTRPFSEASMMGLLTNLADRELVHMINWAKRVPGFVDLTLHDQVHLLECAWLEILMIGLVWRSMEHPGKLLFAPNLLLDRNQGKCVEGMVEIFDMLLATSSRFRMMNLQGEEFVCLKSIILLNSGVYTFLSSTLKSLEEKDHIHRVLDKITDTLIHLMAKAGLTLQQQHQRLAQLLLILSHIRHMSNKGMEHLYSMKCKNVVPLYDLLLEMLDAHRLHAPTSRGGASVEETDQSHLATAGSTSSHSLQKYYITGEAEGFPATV
test.method.notes: U2-OS ER-alpha luciferase reporter cell line

Recorded results for 2 compounds are shown here.
C[C@]12CC[C@H]3[C@@H](CCC4=CC(=O)CC[C@@H]43)[C@@H]1CC[C@@H]2O; 0.0398 µM
C[C@]12CCC(=O)C=C1CC[C@@H]1[C@@H]2CC[C@]2(C)C(=O)CC[C@@H]12; > 10 µM

## Input Reported EC50 for C[C@]1(O)CC[C@H]2[C@@H]3CCC4=CC(=O)CCC4=C3C=C[C@@]21C : what is it?
## Output > 10 µM
